System: MTT (mouse pheochromocytoma)
MEASUREMENT_PROTOCOL: IC50 of cell viability (ATP content)
TEST_CONTEXT: (24 or 48 h)
Reported IC50 of cell viability values follow for various molecules

Solved entries (count: 2):
MOLECULE	IC50 of cell viability
CC(O)C(N)C(=O)O (stereo not drawn)	> 46 µM
Cc1cc(O)c(C(=O)N[C@@H](C(=O)N[C@@H]2C(=O)N3C(C(=O)O)=C(CSc4nnnn4C)CS[C@H]23)c2ccc(O)cc2)cn1 [CEFPIRAMIDE SODIUM]	> 46 µM

Then this molecule:
Query C[C@H]1OC(OC2C(O)[C@@H](O)C(OC3C(O)[C@@H](O)C(O)O[C@@H]3CO)O[C@@H]2CO)[C@H](O)C(O)C1N[C@H]1C=C(CO)[C@@H](O)[C@H](O)C1O (stereo partly drawn) on MTT (mouse pheochromocytoma); IC50 of cell viability returned: > 46 µM

----------
System: MTT (mouse pheochromocytoma)
MEASUREMENT_PROTOCOL: IC50 of cell viability (ATP content)
TEST_CONTEXT: (24 or 48 h)
Counter-ions that a name gives are not always drawn.
Reported IC50 of cell viability values follow for various molecules

MOLECULE	MEASURED
O=C(O)/C=C/c1ccccc1	> 46 µM
Cc1ccccc1C(=O)N1CC/C(=N/OS(=O)(=O)[O-])c2ccc(Cl)cc21	> 46 µM
OC(=O)C/1=C/C(=O)C2=C(O1)C=CC=C2	> 46 µM

For reference, reported IC50 of cell viability for CN1[C@@H]2CC[C@H]1CC(OC(c1ccccc1)c1ccccc1)C2.C[S+](=O)([O-])O (some centres undefined) stands at > 46 µM

For reference, reported IC50 of cell viability for [N-]=[N+]=CC(=O)OCC(N)C(=O)O (centres undefined) stands at > 46 µM

For reference, reported IC50 of cell viability for COc1nccnc1N[S+](=O)([O-])c1ccc(N)cc1 stands at > 46 µM

For reference, reported IC50 of cell viability for CN(C)[C@@H]\1[C@@H]2C[C@H]3\C(=C(\O)[C@@]2(O)C(=O)\C(=C1O)C(N)=O)C(=O)C4=C(C=CC=C4O)[C@@]3(C)O [Tetracycline hydrochloride] stands at > 46 µM

For reference, reported IC50 of cell viability for C[S+](=O)([O-])Nc1cc2occ(NC=O)c(=O)c2cc1Oc1ccccc1 stands at > 46 µM

For reference, reported IC50 of cell viability for C=C1CCC2[C@](C)(CO)C(O)CC[C@]2(C)C1C/C=C1/C(=O)OCC1O (some centres undefined) [ANDROGRAPHOLIDE] stands at > 46 µM

For reference, reported IC50 of cell viability for C=C1Nc2ccccc2C(=O)N1c1ccccc1C stands at > 46 µM

For reference, reported IC50 of cell viability for CC1=C(NNC(=O)C1)C2=CC=C(N\N=C(\C#N)C#N)C=C2 stands at > 46 µM

For reference, reported IC50 of cell viability for CC(C)(Oc1ccc(Cl)cc1)C(=O)O stands at > 46 µM

For reference, reported IC50 of cell viability for CO/N=C1\CN(c2nc3c(cc2F)c(=O)c(C(=O)O)cn3C2CC2)CC1CN.C[S+](=O)([O-])O (centres undefined) [GEMIFLOXACIN MESYLATE] stands at > 46 µM

For reference, reported IC50 of cell viability for CC\1=C(/CCN2CCC(CC2)C3=NOC4=C3C=CC(=C4)F)C(=O)[N@@]\5CCC[C@H](O)C5=N1 (racemic) [rac 9-Hydroxy Risperidone] stands at > 46 µM

For reference, reported IC50 of cell viability for COc1ccccc1OCCNCC(O)COc1cccc2[nH]c3ccccc3c12.O=C(O)C(O)C(O)C(=O)O (centres undefined) [CARVEDILOL TARTRATE] stands at > 46 µM

For reference, reported IC50 of cell viability for CC(C)CCCC(C)CCCC(C)CCCCC(C)CCCC(C)CCCC(C)C (centres undefined) stands at > 46 µM

For reference, reported IC50 of cell viability for Cc1ccc(O)c([C@H](CCN(C(C)C)C(C)C)c2ccccc2)c1 stands at > 46 µM

For reference, reported IC50 of cell viability for CCN(CC)CC#CCOC(=O)[C@@](O)(c1ccccc1)C1CCCCC1 [Oxybutynin chloride] stands at > 46 µM

For reference, reported IC50 of cell viability for CCCCC(F)(F)[C@@]1(O)CC[C@H]2[C@@H](CC(=O)[C@@H]2CCCCCCC(=O)O)O1 stands at > 46 µM

For reference, reported IC50 of cell viability for O=C1CCC(c2ccccc2)(C2CCN(Cc3ccccc3)CC2)C(=O)N1 (centres undefined) stands at > 46 µM
